molecular target: UniProt:Q9GZV3; experiment: CHT choline uptake inhibitors, dose response, cell-based, HEK-293 hCHT, [3H]-choline uptake (AID 652177); conditions: 15 min, IC50 at 10 uM choline
Sequence (Q9GZV3 whole entry, looked up): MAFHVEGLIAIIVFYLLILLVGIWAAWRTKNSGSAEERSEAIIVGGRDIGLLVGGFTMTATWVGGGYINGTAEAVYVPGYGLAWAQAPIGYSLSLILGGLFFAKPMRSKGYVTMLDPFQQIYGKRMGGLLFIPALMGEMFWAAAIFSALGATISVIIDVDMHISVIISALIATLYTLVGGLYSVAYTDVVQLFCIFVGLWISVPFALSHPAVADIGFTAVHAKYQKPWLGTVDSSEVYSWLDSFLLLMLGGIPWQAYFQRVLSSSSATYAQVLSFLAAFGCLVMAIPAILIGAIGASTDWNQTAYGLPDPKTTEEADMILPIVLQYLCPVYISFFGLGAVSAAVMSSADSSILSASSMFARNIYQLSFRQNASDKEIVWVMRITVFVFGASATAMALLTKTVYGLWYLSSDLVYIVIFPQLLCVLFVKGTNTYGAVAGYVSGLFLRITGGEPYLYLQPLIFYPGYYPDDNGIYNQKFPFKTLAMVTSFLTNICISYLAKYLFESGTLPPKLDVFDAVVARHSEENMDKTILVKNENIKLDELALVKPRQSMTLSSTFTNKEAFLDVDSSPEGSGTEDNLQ
Measurement Kind: pIC50
Expect pIC50 as a plain number equal to -log10 of the molar concentration.

Consider the compound `CCc1cc(CNC(=O)c2ccc(OC)c(OCCN3CCCCC3)c2)on1` and give its recorded pIC50.
5.66
